# testedSystem: RET (Homo sapiens, UniProt P07949)
# Construct: the RET cytoplasmic domain consisting of the last 492 amino acids of the intracellular domain of the RET tyrosine kinase; histidine tag (N); made in house; host or cells: Hi5 insect cells
# Sequence (P07949 658-1114 limits assumed): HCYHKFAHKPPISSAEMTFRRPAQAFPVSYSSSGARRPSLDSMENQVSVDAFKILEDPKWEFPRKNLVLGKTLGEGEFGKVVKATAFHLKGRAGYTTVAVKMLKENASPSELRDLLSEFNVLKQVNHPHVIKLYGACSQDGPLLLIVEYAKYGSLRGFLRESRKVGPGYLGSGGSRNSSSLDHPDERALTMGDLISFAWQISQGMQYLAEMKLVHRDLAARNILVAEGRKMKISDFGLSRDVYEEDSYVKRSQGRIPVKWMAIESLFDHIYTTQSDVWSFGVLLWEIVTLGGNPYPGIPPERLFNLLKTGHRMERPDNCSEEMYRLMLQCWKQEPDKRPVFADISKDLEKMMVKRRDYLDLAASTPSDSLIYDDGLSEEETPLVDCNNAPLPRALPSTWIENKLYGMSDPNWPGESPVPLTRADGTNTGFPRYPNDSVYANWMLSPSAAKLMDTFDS
# experimentDescription: RET Kinase Screening Assay
# Assay type: biochemical
# details: 33P-γ-ATP incorporation, 10 μM ATP
assayEndpoint: IC50 (µM)

Worked examples, 4 molecules total:
c1cnc2[nH]cc(-c3ccnc(NC4CCNCC4)n3)c2c1 [Cpd 65] = 1.23
CNCCc1ccc(Nc2nccc(-c3c[nH]c4ncccc34)n2)c(Cl)c1 [Cpd 53] = 2.36
Cc1cc(CCN2CCCC2)ccc1Nc1nccc(-c2c[nH]c3ncccc23)n1 [Cpd 48] = 3.52
CNCCc1ccc(Nc2nccc(-c3c[nH]c4ncccc34)n2)c(C)c1 [Cpd 45] = 1.54

P. Clc1cc(CCN2CCOCC2)ccc1Nc1nccc(-c2c[nH]c3ncccc23)n1 [Cpd 56]
Q. CN(C)c1ccc(Nc2nccc(-c3c[nH]c4ncccc34)n2)cc1 [Cpd 38]
# return whichever of P and Q has the smaller IC50 # reply format: chosen label
Q
(Q: 0.821 µM, P: 1.24 µM)
